System: HDQ-P1
Experiment: drug sensitivity score (DSS), CellTox Green (DSS (AUC-based score)); higher = stronger drug effect (viability inhibition or cytotoxicity); extreme values may be limits of the assay
Conditions: incubation time: 72 h
METRIC_NAME: drug sensitivity score
Lab note: jot the number down without any unit.

Reference set (4 entries):
{"COMPOUND": "Cn1cc(CNCC2CCN(c3ncc(C(=O)NO)cn3)CC2)c2ccccc21 [Quisinostat]", "drug sensitivity score": 1.56}
{"COMPOUND": "CC(=O)OC[C@H]1O[C@@H]([S-])[C@H](OC(C)=O)[C@@H](OC(C)=O)[C@@H]1OC(C)=O.CCP(CC)CC.[Au+] [Auranofin]", "drug sensitivity score": 6.27}
{"COMPOUND": "CO[C@@H](C(=O)N1Cc2[nH]nc(NC(=O)c3ccc(N4CCN(C)CC4)cc3)c2C1)c1ccccc1 [Danusertib]", "drug sensitivity score": 0.964}
{"COMPOUND": "Cc1nc(Nc2ncc(C(=O)Nc3c(C)cccc3Cl)s2)cc(N2CCN(CCO)CC2)n1 [Dasatinib]", "drug sensitivity score": 0}

Please find the next compound below.
get_value(item= Cc1c(CN2CCN(C(=O)[C@H](C)O)CC2)sc2c(N3CCOCC3)nc(-c3cnc(N)nc3)nc12 [GDC-0980] , readout=drug sensitivity score) returns 1.58
